Test: recombinant barcode read abundance after kanamycin selection (control-corrected) (log10(CPM+1)); higher = more efficient recombination; sequences stand for … in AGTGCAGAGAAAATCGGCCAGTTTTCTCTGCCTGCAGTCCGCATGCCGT…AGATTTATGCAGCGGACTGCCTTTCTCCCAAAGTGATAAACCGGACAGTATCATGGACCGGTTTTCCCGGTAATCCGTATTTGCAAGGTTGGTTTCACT; site = the 11-nt target
Measurement Label: recombinant barcode read abundance (log10)
// no unit string in output, number only

* GAGTCTACTTGGGTTCTAACCTGTTGCTT (site GAGTCTACTAA) | 0
* GACGTGTCTTGGGTTCTAACCTGTTGCGT (site AGTCATACTTG) | 0

Next:
Q: Please look up its recombinant barcode read abundance (log10): TCCAAATCTTGGGTTCTAACCTGTTGCCT (site TCCAAATCTAG)
A: 0.317

----------
Test: recombinant UMI read abundance after kanamycin selection (control-corrected) (log10(CPM+1)); higher = more efficient recombination; extreme values may be limits of the assay; sequences stand for … in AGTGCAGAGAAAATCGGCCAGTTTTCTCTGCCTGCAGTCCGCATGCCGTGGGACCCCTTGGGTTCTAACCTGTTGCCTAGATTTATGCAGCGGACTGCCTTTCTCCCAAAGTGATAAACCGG…AGGTTGGTTTCACT; site = the 11-nt donor
Measurement Label: recombinant UMI read abundance (log10)
// no unit string in output, number only

# annotated cases, reported recombinant UMI read abundance (log10) shown
* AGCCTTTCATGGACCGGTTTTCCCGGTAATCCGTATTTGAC (site AGCCTCTCTGT) | 0
* GTGCATGCATGGACCGGTTTTCCCGGTAATCCGTATTTGAT (site GTGCATGCTAG) | 0.649
* AATGTGTCATGGACCGGTTTTCCCGGTAATCCGTATTTGAC (site AATATGTCTGT) | 0.433

Q: Please look up its recombinant UMI read abundance (log10): TCGTTTACATGGACCGGTTTTCCCGGTAATCCGTATTTGCT (site TCGTTTACTAG)
A: 1.68

Q: Please look up its recombinant UMI read abundance (log10): TTCGCTGCATGGACCGGTTTTCCCGGTAATCCGTATTTGTG (site TTCGCTGCTCA)
A: 0.0258

----------
Test: recombinant UMI read abundance after kanamycin selection (control-corrected) (log10(CPM+1)); higher = more efficient recombination; extreme values may be limits of the assay; sequences stand for … in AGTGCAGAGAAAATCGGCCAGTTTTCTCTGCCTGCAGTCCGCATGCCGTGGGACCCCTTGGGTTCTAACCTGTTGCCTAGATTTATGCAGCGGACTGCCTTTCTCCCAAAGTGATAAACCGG…AGGTTGGTTTCACT; site = the 11-nt donor
Measurement Label: recombinant UMI read abundance (log10)
// no unit string in output, number only

# annotated cases, reported recombinant UMI read abundance (log10) shown
• AATGTAACATGGACCGGTTTTCCCGGTAATCCGTATTTGCT (site AATGGAACTAG) = 0
• TTATGCACATGGACCGGTTTTCCCGGTAATCCGTATTTGTA (site ATATGCACTTA) = 0.0128

Next:
Q: Please look up its recombinant UMI read abundance (log10): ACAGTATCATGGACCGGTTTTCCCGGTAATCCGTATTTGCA (site ACAGTTTCTTG)
A: 1.23
